Data origin, for the record: paper PMC7268155

# assaySummary: in vitro
# condition: human, Viability at 10µM (MTT viability)
assayReadout: viability at 10 µM (%)
Please give a number only; it is taken to be in %.

viability at 10 µM in this record for C(=C\c1ccc2ccccc2n1)/c1ccc2ccccc2n1 : 57.3

// viability at 10 µM lookup, compound = CCCCCc1ccc2ccccc2n1 , result: 108

Per the records, this compound ( CCN(CC)CCCC(C)Nc1ccnc2cc(Cl)ccc12 (stereo not shown) [Chloroquine, Chloroquine diphosphate, reference compound] ) has viability at 10 µM equal to 106

# compound COc1cc(Cc2c(C)nc3ccccc3c2C(=O)O)c(Cl)c2c(C)ccnc12 ; its viability at 10 µM = 105

O=C(NCc1ccc(O)c(O)c1)c1ccc2cccc(C(=O)O)c2n1 has a reported viability at 10 µM of 108

Recorded viability at 10 µM (compound C#CC(O)CCCCCCCCCCCCC#Cc1ccc2ccccc2n1 (stereo not shown) ): 110

For this compound ( Cc1ccc2ccc(C(=O)NCc3ccc(F)cc3)c(O)c2n1 ), measured viability at 10 µM is 77

Summary for this compound, CCCCOC(=O)c1ccc2ccc(/C=C/c3cc(OC)c(O)c([N+](=O)[O-])c3)nc2c1O : viability at 10 µM is 81.5

What the record says about C(/C=C/c1ccc2ccccc2n1)=C\c1ccccc1 : viability at 10 µM is 104

Entry COc1ccc(CNC(=O)Nc2ccc3ccc(C(=O)O)c(O)c3n2)cc1 , viability at 10 µM reported as 106
